target: HCV NS5B RdRp genotype 1b (Hepatitis C virus genotype 1b); construct: The protein was expressed with an 18 amino acid C-terminal truncation to enhance the solubility; experiment: Modified HCV NS5B RdRp enzyme assay (preincubation protocol); conditions: HCV NS5B genotype 1b
Sequence (Q9WMX2 2420-2992): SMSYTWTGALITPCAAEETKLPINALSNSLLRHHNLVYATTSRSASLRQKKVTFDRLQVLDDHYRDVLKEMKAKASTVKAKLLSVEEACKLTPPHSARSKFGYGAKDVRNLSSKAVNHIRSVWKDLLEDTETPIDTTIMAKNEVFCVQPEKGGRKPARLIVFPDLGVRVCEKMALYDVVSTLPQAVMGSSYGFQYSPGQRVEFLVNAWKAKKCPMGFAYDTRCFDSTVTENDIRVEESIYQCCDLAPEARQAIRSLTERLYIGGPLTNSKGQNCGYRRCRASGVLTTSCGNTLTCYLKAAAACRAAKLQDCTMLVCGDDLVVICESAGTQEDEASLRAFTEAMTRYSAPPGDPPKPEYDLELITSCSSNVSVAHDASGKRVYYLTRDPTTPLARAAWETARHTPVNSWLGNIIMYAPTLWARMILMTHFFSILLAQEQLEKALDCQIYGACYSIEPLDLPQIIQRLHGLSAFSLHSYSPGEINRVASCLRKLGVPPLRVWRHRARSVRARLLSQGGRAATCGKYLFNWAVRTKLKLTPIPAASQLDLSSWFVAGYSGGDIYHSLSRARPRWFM
pIC50: −log10 of the molar value.
Recorded pIC50 by entry
observation-type: pIC50

compound	measurement-target	observation-type	value-reported
COc1ccc2c(c1)C1CC1(C(=O)N1C[C@@H](C)N(C)[C@@H](C)C1)Cn1c-2c(C2CCCCC2)c2ccc(C(=O)NS(=O)(=O)C(C)C)cc21 (stereo partly drawn)	HCV NS5B RdRp genotype 1b (Hepatitis C virus genotype 1b)	pIC50	6.30 to 9.00
COc1ccc2c(c1)C1CC1(C(=O)N1C[C@@H](C)N(C)[C@@H](C)C1)Cn1c-2c(C2CCCCC2)c2ccc(C(=O)NS(=O)(=O)N(C)C)cc21 (stereo partly drawn)	HCV NS5B RdRp genotype 1b (Hepatitis C virus genotype 1b)	pIC50	6.30 to 9.00
COc1ccc2c(c1)C1CC1(C(=O)N1C[C@@H](C)N(C(C)C)[C@@H](C)C1)Cn1c-2c(C2CCCCC2)c2ccc(C(=O)NS(=O)(=O)N(C)C)cc21 (stereo partly drawn)	HCV NS5B RdRp genotype 1b (Hepatitis C virus genotype 1b)	pIC50	6.30 to 9.00
